System: HL-60 cells
Test: in vitro
Type: cell-based, human
Settings: 300 µmol/L, about 24 hours, PMA-differentiated HL-60 cells, LDH activity; no-treatment group 0%, cell lysis buffer-treated group 100%
measured-quantity: cytotoxicity (%) Evaluation compound results

>  <molecule>
COCCn1nc(C(=O)OCOP(=O)([O-])OC[N+]2(CCCCOc3ccc4ccc(=O)[nH]c4c3)CCN(c3cccc4sccc34)CC2)c2ccccc21 [EX 82]

>  <tgt>
HL-60 cells

>  <experimental-result>
-2

$$$$
>  <molecule>
O=C(OC[N+]1(CCCCOc2ccc3ccc(=O)[nH]c3c2)CCN(c2cccc3sccc23)CC1)N1CCCCC1.[I-] [REX 4, reference compound]

>  <tgt>
HL-60 cells

>  <experimental-result>
83

$$$$
>  <molecule>
CC(C)(C)[Si](C)(C)OCCCCOP(=O)([O-])OC[N+]1(CCCCOc2ccc3ccc(=O)[nH]c3c2)CCN(c2cccc3sccc23)CC1 [EX 60]

>  <tgt>
HL-60 cells

>  <experimental-result>
16

$$$$
>  <molecule>
COCCN(CCOC)P(=O)([O-])OC[N+]1(CCCCOc2ccc3ccc(=O)[nH]c3c2)CCN(c2cccc3sccc23)CC1 [EX 153]

>  <tgt>
HL-60 cells

>  <experimental-result>
-7

$$$$

###

# maps each entry to its Concentration of evaluation compound decreased
Assay type: physicochemical
Conditions: Tris-hydrochloric acid buffer (pH 7.5) 50 mmol/L, magnesium chloride 5 mmol/L, evaluation compound 1 µmol/L, 37°C, 60 minutes, average of duplicate
measured-quantity: Concentration of evaluation compound decreased (nM)

>  <molecule>
CN1CCN(CCOP(=O)([O-])OC[N+]2(CCCCOc3ccc4ccc(=O)[nH]c4c3)CCN(c3cccc4sccc34)CC2)CC1 [EX 117]

>  <experimental-result>
50

$$$$
>  <molecule>
O=c1ccc2ccc(OCCCC[N+]3(COP(=O)([O-])OCC4(CO)CC4)CCN(c4cccc5sccc45)CC3)cc2[nH]1 [EX 47]

>  <experimental-result>
0

$$$$
>  <molecule>
CCOC(=O)C(CC)OP(=O)([O-])OC[N+]1(CCCCOc2ccc3ccc(=O)[nH]c3c2)CCN(c2cccc3sccc23)CC1 (centres unmarked) [EX 110]

>  <experimental-result>
70

$$$$
>  <molecule>
CCOC(=O)[C@@H](C)OP(=O)([O-])OC[N+]1(CCCCOc2ccc3ccc(=O)[nH]c3c2)CCN(c2cccc3sccc23)CC1 [EX 103]

>  <experimental-result>
-10

$$$$
>  <molecule>
CC(C)C(=O)OCOP(=O)([O-])OC[N+]1(CCCCOc2ccc3ccc(=O)[nH]c3c2)CCN(c2cccc3sccc23)CC1 [EX 24]

>  <experimental-result>
-110

$$$$
>  <molecule>
CC(C)OCCOP(=O)([O-])OC[N+]1(CCCCOc2ccc3ccc(=O)[nH]c3c2)CCN(c2cccc3sccc23)CC1 [EX 13]

>  <experimental-result>
30

$$$$
>  <molecule>
CC(=O)OCCCOP(=O)([O-])OC[N+]1(CCCCOc2ccc3ccc(=O)[nH]c3c2)CCN(c2cccc3sccc23)CC1 [EX 15]

>  <experimental-result>
0

$$$$
>  <molecule>
O=C(OCCCCCCOP(=O)([O-])OC[N+]1(CCCCOc2ccc3ccc(=O)[nH]c3c2)CCN(c2cccc3sccc23)CC1)c1ccc([N+](=O)[O-])cc1 [EX 85]

>  <experimental-result>
40

$$$$
>  <molecule>
O=C(CCO)OCOP(=O)([O-])OC[N+]1(CCCCOc2ccc3ccc(=O)[nH]c3c2)CCN(c2cccc3sccc23)CC1 [EX 125]

>  <experimental-result>
130

$$$$
>  <molecule>
COc1ccc(C(=O)OCCCCCCOP(=O)([O-])OC[N+]2(CCCCOc3ccc4ccc(=O)[nH]c4c3)CCN(c3cccc4sccc34)CC2)cc1 [EX 58]

>  <experimental-result>
40

$$$$
>  <molecule>
O=c1ccc2ccc(OCCCC[N+]3(COP(=O)([O-])OCC#CCCl)CCN(c4cccc5sccc45)CC3)cc2[nH]1 [EX 63]

>  <experimental-result>
20

$$$$
>  <molecule>
CCCOCCOP(=O)([O-])OC[N+]1(CCCCOc2ccc3ccc(=O)[nH]c3c2)CCN(c2cccc3sccc23)CC1 [EX 95]

>  <experimental-result>
-10

$$$$
>  <molecule>
CSCCCOP(=O)([O-])OC[N+]1(CCCCOc2ccc3ccc(=O)[nH]c3c2)CCN(c2cccc3sccc23)CC1 [EX 66]

>  <experimental-result>
170

$$$$
>  <molecule>
COCCNP(=O)([O-])OC[N+]1(CCCCOc2ccc3ccc(=O)[nH]c3c2)CCN(c2cccc3sccc23)CC1 [EX 152]

>  <experimental-result>
10

$$$$
